test system: Influenza A virus; experiment: Antiviral activity against Influenza A virus A/WSN/33(H1N1) infected in human 293T cells pretreated for 2 hrs followed by viral infection and measured after 24 hrs by Gaussia luciferase reporter gene assay; format: functional, organism-based; settings: A/WSN/1933(H1N1), HEK-293T
Give pIC50 for every item shown.
Give bare numbers, as −log10 of the molar value.

Study these solved cases before continuing.
>  <smiles string>
O=C(NCCOc1nc(Cl)nc2ccccc12)c1ccccc1

>  <pIC50>
4.32

$$$$
>  <smiles string>
NC(=O)c1ncn([C@@H]2O[C@H](CO)[C@@H](O)[C@H]2O)n1

>  <pIC50>
4.81

$$$$
>  <smiles string>
O=C(NCCOc1nc(N2CCCC2)nc2ccccc12)c1ccc(C(F)(F)F)cc1

>  <pIC50>
5.06

$$$$

Look at each compound and report its pIC50.
1. O=C(COc1nc(N2CCc3ccccc3C2)nc2ccccc12)NCc1ccccc1
2. COc1ccc(OC(=O)NCCOc2nc(N3CCCC3)nc3ccccc23)cc1

[out]
[4.75, 4.26]
